All figures here come from paper PMC7350407.

biological target: Flaveria pringlei (C3) PEPC (Flaveria pringlei, UniProt Q01647); construct: gene PPCA1; full-length, 967 codons, N-terminal His6 tag kept (pET-1B His6 TEV LIC), E. coli BL21(DE3); assay: malate dehydrogenase-coupled NADH assay, […] nm; assay type: biochemical; details: read-out: KicAspartate
Sequence (Q01647 whole entry): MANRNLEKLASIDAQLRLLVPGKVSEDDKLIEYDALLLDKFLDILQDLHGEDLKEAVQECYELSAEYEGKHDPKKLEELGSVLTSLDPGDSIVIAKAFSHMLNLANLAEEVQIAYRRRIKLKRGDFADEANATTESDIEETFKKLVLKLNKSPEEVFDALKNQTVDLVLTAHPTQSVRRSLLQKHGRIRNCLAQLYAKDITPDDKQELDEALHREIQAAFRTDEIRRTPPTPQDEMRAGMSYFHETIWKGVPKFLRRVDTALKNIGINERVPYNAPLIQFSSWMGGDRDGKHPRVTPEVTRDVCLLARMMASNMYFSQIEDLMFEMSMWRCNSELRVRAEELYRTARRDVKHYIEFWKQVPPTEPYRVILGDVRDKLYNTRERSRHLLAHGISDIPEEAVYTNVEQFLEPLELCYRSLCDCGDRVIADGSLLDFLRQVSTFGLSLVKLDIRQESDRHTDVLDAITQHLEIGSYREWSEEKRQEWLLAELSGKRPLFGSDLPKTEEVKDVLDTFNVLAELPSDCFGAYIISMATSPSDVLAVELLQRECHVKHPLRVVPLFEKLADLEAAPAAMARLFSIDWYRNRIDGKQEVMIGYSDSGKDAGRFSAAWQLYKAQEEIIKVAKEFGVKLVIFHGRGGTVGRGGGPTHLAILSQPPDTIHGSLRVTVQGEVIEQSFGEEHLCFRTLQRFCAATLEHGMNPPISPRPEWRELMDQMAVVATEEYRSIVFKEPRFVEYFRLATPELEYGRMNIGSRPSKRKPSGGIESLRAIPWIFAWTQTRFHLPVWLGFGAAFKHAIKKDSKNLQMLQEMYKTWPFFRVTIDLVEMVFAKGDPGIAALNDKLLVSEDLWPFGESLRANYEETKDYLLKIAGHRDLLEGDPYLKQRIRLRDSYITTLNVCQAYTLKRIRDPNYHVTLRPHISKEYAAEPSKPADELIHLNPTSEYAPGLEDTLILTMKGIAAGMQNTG
Measured Parameter: pKi
Recall that pKi is obtained by taking minus log10 of the concentration measured in molar.

## Task Returns the measured pKi for the input molecule. Input: N[C@@H](CC(=O)O)C(=O)O [aspartate]
## Result 2.38

====

biological target: Panicum pygmaeum (C3) PEPC; construct: gene ppc-1P3; full-length, 969 codons, codon-optimised synthetic gene, N-terminal His6 tag kept, E. coli BL21(DE3); assay: malate dehydrogenase-coupled NADH assay, […] nm; assay type: biochemical; settings: pH 8.0, 25 °C, 10 mM MgCl2, 5 mM KHCO3, PEP varied; competitive; read-out: KicAspartate
Measured Parameter: pKi
Recall that pKi is obtained by taking minus log10 of the concentration measured in molar.

## Task Returns the measured pKi for the input compound. Input: N[C@@H](CC(=O)O)C(=O)O [aspartate]
## Result 2.64

====

target: Flaveria pringlei (C3) PEPC (Flaveria pringlei, UniProt Q01647); construct: gene PPCA1; full-length, 967 codons, N-terminal His6 tag kept (pET-1B His6 TEV LIC), E. coli BL21(DE3); assay: malate dehydrogenase-coupled NADH assay, […] nm; type: biochemical; details: read-out: KicMalate
Measured Parameter: pKi
Recall that pKi is obtained by taking minus log10 of the concentration measured in molar.

## Task Returns the measured pKi for the input compound. Input: O=C(O)C[C@H](O)C(=O)O [malate]
## Result 2.67

====

target: Flaveria trinervia (C4) PEPC (Flaveria trinervia, UniProt P30694); construct: gene PPCA; full-length, 967 codons, N-terminal His6 tag kept (pET-1B His6 TEV LIC), E. coli BL21(DE3); experiment: malate dehydrogenase-coupled NADH assay, […] nm; format: biochemical; conditions: read-out: KicMalate
Sequence (P30694 whole entry): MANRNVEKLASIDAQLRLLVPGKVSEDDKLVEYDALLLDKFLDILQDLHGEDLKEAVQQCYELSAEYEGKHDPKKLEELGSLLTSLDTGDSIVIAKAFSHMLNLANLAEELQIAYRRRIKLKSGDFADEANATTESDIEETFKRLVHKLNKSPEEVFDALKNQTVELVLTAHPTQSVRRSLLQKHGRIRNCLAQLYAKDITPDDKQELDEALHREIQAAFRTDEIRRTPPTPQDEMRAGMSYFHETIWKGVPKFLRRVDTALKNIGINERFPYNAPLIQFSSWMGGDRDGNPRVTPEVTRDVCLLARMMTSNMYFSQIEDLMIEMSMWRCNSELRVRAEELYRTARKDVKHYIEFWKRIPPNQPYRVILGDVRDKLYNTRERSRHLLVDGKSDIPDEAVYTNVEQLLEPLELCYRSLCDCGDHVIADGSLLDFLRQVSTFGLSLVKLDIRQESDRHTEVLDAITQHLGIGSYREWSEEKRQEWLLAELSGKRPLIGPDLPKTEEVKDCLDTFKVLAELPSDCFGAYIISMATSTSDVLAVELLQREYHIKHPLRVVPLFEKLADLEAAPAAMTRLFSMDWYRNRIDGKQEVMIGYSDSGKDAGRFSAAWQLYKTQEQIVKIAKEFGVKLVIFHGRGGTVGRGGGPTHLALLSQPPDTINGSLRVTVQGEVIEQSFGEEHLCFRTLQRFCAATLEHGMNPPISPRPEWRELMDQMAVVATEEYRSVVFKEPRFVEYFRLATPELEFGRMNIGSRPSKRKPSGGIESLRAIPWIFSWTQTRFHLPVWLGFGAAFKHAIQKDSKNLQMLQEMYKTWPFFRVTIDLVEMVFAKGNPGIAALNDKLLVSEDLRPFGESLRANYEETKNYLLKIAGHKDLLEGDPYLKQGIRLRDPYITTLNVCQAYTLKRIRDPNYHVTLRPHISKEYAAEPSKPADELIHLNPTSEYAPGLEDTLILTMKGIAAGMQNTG
Measured Parameter: pKi
Recall that pKi is obtained by taking minus log10 of the concentration measured in molar.

## Task For the record O=C(O)C[C@H](O)C(=O)O [malate] , what value of pKi is listed for Flaveria trinervia (C4) PEPC (Flaveria trinervia, UniProt P30694)?
## Result 1.96
